# EXPERIMENTAL SYSTEM: CDK2/Cyclin E (Homo sapiens, UniProt P24941)
# Construct: The open reading frames of CDK2 and Cyclin E were isolated by reverse transcriptase-PCR
# MEASUREMENT PROTOCOL: in vitro kinase assay (Scintillation Proximity Assay), incorporation of [γ-33-P]-ATP into GST-Rb
# MEASUREMENT CONDITIONS: CDK2/Cyclin E partially-purified enzyme, GST-Rb substrate, 0.2 μM ATP, 60 minutes at room temperature; read-out: CDK2 inhibitory activity IC50
ASSAY ENDPOINT: IC50 (nM)
Give bare numbers, in nM.

- SMILES TEXT: "CCCNS(=O)(=O)c1ccc(Nc2ncc(C#N)c(N)n2)cc1"
  EXPERIMENTAL SYSTEM: "CDK2/Cyclin E (Homo sapiens, UniProt P24941)"
  UNIT NAME: "nM"
  IC50: 17

Then there is this molecule:
query: Any idea what its IC50 is? The molecule is `N#Cc1cnc(Nc2ccc(S(=O)(=O)NC3CCC3)cc2)nc1N`
result: 33
